# System Name: mPAD4 (Mus musculus, UniProt Q9Z183)
# Sequence (Q9Z183 whole entry): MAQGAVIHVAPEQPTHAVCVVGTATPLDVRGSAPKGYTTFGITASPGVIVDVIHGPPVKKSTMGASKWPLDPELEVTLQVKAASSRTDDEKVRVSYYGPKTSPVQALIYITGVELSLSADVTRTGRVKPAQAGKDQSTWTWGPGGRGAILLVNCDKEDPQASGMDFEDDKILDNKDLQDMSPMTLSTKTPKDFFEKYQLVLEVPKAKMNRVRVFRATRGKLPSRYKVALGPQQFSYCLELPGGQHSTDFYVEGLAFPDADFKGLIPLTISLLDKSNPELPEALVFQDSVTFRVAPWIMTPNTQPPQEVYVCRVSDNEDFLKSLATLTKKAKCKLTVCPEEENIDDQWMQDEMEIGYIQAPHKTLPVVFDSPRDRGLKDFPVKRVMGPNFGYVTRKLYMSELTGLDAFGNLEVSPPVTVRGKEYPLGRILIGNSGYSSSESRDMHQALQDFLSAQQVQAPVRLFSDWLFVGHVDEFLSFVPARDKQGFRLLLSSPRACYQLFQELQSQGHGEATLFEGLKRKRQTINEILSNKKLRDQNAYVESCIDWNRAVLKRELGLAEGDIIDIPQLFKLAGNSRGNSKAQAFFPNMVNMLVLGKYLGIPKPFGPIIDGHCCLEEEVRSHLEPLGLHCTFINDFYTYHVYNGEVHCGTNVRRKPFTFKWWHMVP
# Method Summary: mPAD4 RFMS PAD4 inhibition assay
# Type: biochemical
# Condition: mPAD4, RFMS readout; read-out: mPAD4 RFMS IC50
pIC50: −log10 of the molar value.
Documented pIC50 across a set of molecules
Recorded Metric: pIC50

| Molecule | Recorded Metric | Readout Value |
| --- | --- | --- |
| COc1cc(C(=O)N2CC(N)CC(C#N)C2)cc2nc(-c3cc4cccnc4n3CC3CC3)n(C)c12 (racemic) [Compound I-82] | pIC50 | < 5.00 |
| COc1cc(C(=O)N2C[C@H](N)C[C@@H](F)C2)cc2nc(-c3cc4cccnc4n3CC3CC3)n(C[C@H]3C[C@@](C)(OC)C3)c12 [Compound I-209] | pIC50 | > 6.00 |
| COc1cc(C(=O)N2C[C@H](N)CC[C@H]2CO)cc2nc(-c3cc4cccnc4n3CC3CC3)n(C)c12 (single isomer, unassigned) [Compound I-226] | pIC50 | < 5.00 |
| CCn1c(-c2nc3cc(C(=O)N4CCC[C@@H](N)C4)cc(OC)c3n2C)cc2ccc(OC(F)F)nc21 [Compound I-201] | pIC50 | > 6.00 |
| CCn1c(-c2nc3cc(C(=O)N4C[C@H]5CC[C@@H]4[C@@H]5N)cc(OC)c3n2CC2CCOCC2)cc2cccnc21 [Compound I-173] | pIC50 | 5.30 to 6.00 |
| COC1CCN(C(=O)c2ccc3c(c2)nc(-c2cc4cccnc4n2CC2CC2)n3C)CC1N (racemic) [Compound I-62] | pIC50 | 5.00 to 5.30 |
